Would you mind telling me the reported ABSOLUTE EOSINOPHIL of each entry?
# Organism: Rattus norvegicus
# Test details: DrugMatrix - Regimen: Daily Repeat
# Format: toxicity, organism-based, Sprague-Dawley
# Design: regimen Daily Repeat, gender Male, age 6-8 weeks
# Condition parameters: in vivo, po, 0 mg/kg, 120 h, tissue Blood, route oral GAVAGE, dose level Control, time 5 day, vehicle 100 % WATER
Respond with the bare value in CELLS/uL.

The compound listed as "CNNCc1ccc(C(=O)NC(C)C)cc1" has a reported ABSOLUTE EOSINOPHIL of 0

The compound listed as "Cn1cc[nH]c1=S" has a reported ABSOLUTE EOSINOPHIL of 14.5

The compound listed as "Clc1cccc(Cl)c1N=C1NCCN1" has a reported ABSOLUTE EOSINOPHIL of 25.33

The compound listed as "C[C@H]1c2cccc(O)c2C(=O)C2=C(O)[C@]3(O)C(=O)C(C(N)=O)=C(O)[C@@H](N(C)C)[C@@H]3[C@@H](O)[C@@H]21.O" has a reported ABSOLUTE EOSINOPHIL of 26.67

* * *

Would you mind telling me the reported NEUTROPHIL of each entry?
# Species on record: Rattus norvegicus
# Test details: DrugMatrix - Regimen: Daily Repeat
# Type: toxicity, organism-based, Sprague-Dawley
# Set-up: regimen Daily Repeat, gender Male, age 6-8 weeks
# Condition parameters: in vivo, po, 0 mg/kg, 120 h, tissue Blood, route oral GAVAGE, dose level Control, time 5 day, […]

The compound listed as O=NN(CCCl)C(=O)NC1CCCCC1 [LOMUSTINE] has a reported NEUTROPHIL of 8.67%

The compound listed as CN(C)c1nc(N(C)C)nc(N(C)C)n1 [ALTRETAMINE] has a reported NEUTROPHIL of 8.67%

The compound listed as CC(C)C(=O)Nc1ccc([N+](=O)[O-])c(C(F)(F)F)c1 [FLUTAMIDE] has a reported NEUTROPHIL of 5.17%

The compound listed as C[C@H]1O[C@@H](O[C@H]2[C@@H](O)C[C@H](O[C@H]3[C@@H](O)C[C@H](O[C@H]4CC[C@@]5(C)[C@H](CC[C@@H]6[C@@H]5C[C@@H](O)[C@]5(C)[C@@H](C7=CC(=O)OC7)CC[C@]65O)C4)O[C@@H]3C)O[C@@H]2C)C[C@H](O)[C@@H]1O [DIGOXIN] has a reported NEUTROPHIL of 6.33%

The compound listed as Cc1oncc1C(=O)Nc1ccc(C(F)(F)F)cc1 [LEFLUNOMIDE] has a reported NEUTROPHIL of 12%

* * *

# Organism: Rattus norvegicus
# Test details: DrugMatrix - Regimen: Daily Repeat
# Type: toxicity, organism-based, Sprague-Dawley
# Design: regimen Daily Repeat, gender Male, age 6-8 weeks
# Condition parameters: in vivo, po, 0 mg/kg, 120 h, tissue Plasma, route oral GAVAGE, dose level Control, time 5 day, […]
Observation type: ALBUMIN (G/DL)
Respond with the bare value in G/DL.

The compound listed as "OC(Cn1cncn1)(Cn1cncn1)c1ccc(F)cc1F" has a reported ALBUMIN of 3.9

The compound listed as CCC(C)n1ncn(-c2ccc(N3CCN(c4ccc(OCC5COC(Cn6cncn6)(c6ccc(Cl)cc6Cl)O5)cc4)CC3)cc2)c1=O (configuration not stated) has a reported ALBUMIN of 3.9

The compound listed as Cc1oncc1C(=O)Nc1ccc(C(F)(F)F)cc1 [LEFLUNOMIDE] has a reported ALBUMIN of 4

The compound listed as "Cc1ccc(-c2cc(C(F)(F)F)nn2-c2ccc(S(N)(=O)=O)cc2)cc1" has a reported ALBUMIN of 3.9

The compound listed as "O=C(O)CCCc1ccc(N(CCCl)CCCl)cc1" has a reported ALBUMIN of 3.9

The compound listed as "Cc1noc(NS(=O)(=O)c2ccc(N)cc2)c1C" has a reported ALBUMIN of 3.92

The compound listed as "C[C@H]1O[C@@H](O[C@H]2[C@@H](O)C[C@H](O[C@H]3[C@@H](O)C[C@H](O[C@H]4CC[C@@]5(C)[C@H](CC[C@@H]6[C@@H]5C[C@@H](O)[C@]5(C)[C@@H](C7=CC(=O)OC7)CC[C@]65O)C4)O[C@@H]3C)O[C@@H]2C)C[C@H](O)[C@@H]1O" has a reported ALBUMIN of 4.1
